Just for reference, PubChem BioAssay (NCATS) is where these values come from.

experiment: Cell Viability - LYMP2-017 (AID 972); conditions: LYMP2-017 lymphoblastoid cell viability; series mostly up to 92.2 µM;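 also: cells exposed to compound for 24 hours at 37 °C; nearly all actives have a fitted effect of over 55% in size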
Results filed as inconclusive are left out. Activity calls are given as the source filed them. Calls follow the shape of the dose curve; as a rule, active = well fitted cell-killing curve with a large enough effect; inconclusive = small, poorly fitted or top-dose-only effect; inactive = flat fitted curve, though single readings scatter.
Classes to choose from: 1 for active, -1 for inactive

Req: Answer briefly: the call reported for `Oc1ccc(/C=C/c2cc(O)cc(O)c2)cc1` in this assay.
Resp: -1

Req: Recorded test outcome, item `C/C=C/C=C/C(=O)O`
Resp: -1

Req: How did this test come out for `CC1=CC(=O)NS(=O)(=O)O1` ?
Resp: -1

Req: Test call, this molecule: `Nc1ccc(N=Nc2ccccc2)c(N)n1`
Resp: -1

Req: Just curious, what result did `C[C@H](CCC(=O)O)[C@H]1CC[C@H]2[C@@H]3[C@H](O)C[C@@H]4C[C@H](O)CC[C@]4(C)[C@H]3C[C@H](O)[C@]12C` get here?
Resp: -1

Req: Which outcome was entered for the molecule `[O-][N+](=Nc1ccccc1)c1ccccc1` in this test?
Resp: -1

Req: What call does the record list for `C[C@H](CCC(=O)O)[C@H]1CC[C@H]2[C@@H]3CC[C@@H]4C[C@H](O)CC[C@]4(C)[C@H]3C[C@H](O)[C@]12C` ?
Resp: -1

Req: I would be grateful if you could indicate the recorded call for `OCl` .
Resp: -1

Req: Could you kindly confirm the outcome this assay logged for `CC(C)(C)CC(C)(C)c1ccc(OCCO)cc1` ?
Resp: -1

Req: # lookup: test call for `CC/C=C\C/C=C\C/C=C\CCCCCCCC(=O)O`
Resp: 1

Req: Which outcome was entered for the molecule `NC(N)=O` in this test?
Resp: -1

Req: Test call for this molecule, please: `ClC(Cl)Cl`
Resp: -1

Req: Look up the recorded call for `CC[C@H]1OC(=O)[C@H](C)[C@@H](O[C@H]2C[C@@](C)(OC)[C@@H](O)[C@H](C)O2)[C@H](C)[C@@H](O[C@@H]2O[C@H](C)C[C@H](N(C)C)[C@H]2O)[C@](C)(O)C[C@@H](C)CN(C)[C@H](C)[C@@H](O)[C@]1(C)O` in this test.
Resp: -1

Req: Lab log entry: `CO/N=C(/C(=O)N[C@@H]1C(=O)N2C(C(=O)O)=C(COC(N)=O)CS[C@H]12)c1ccco1` — outcome as called in the assay?
Resp: -1

Req: Outcome? `NCCN`
Resp: -1

Req: Dear colleague, could you share the recorded outcome for `C[C@H]1O[C@@H](O[C@H]2[C@@H](O)C[C@H](O[C@H]3[C@@H](O)C[C@H](O[C@H]4CC[C@@]5(C)[C@H](CC[C@@H]6[C@@H]5C[C@@H](O)[C@]5(C)[C@@H](C7=CC(=O)OC7)CC[C@]65O)C4)O[C@@H]3C)O[C@@H]2C)C[C@H](O)[C@@H]1O` when you have a moment?
Resp: 1

Req: For `Oc1cccc(O)c1O` , which call appears in the assay record?
Resp: -1

Req: Hello, I am checking results. What call was entered for `OCC(O)CO` ?
Resp: -1

Req: Called result for C=C1C(CCl)(CCl)C2(Cl)C(Cl)C(Cl)C1(Cl)C2(Cl)Cl (centres undefined)
Resp: 1

###

Assay: qHTS assay for small molecule antagonists of peroxisome proliferator-activated receptor delta signaling (AID 588535);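 also: cells co-treated with a PPAR-delta agonist as stimulator during compound exposure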
Conditions: HEK293T PPARd-UAS-bla, beta-lactamase FRET ratio, 18 h; 460 nm channel
Description: NIH Chemical Genomics Center [NCGC] U.S. Environmental Protection Agency [EPA] National Institutes of Environmental Health Sciences [NIEHS] National Toxicology Program [NTP] NCGC Assay Overview The Peroxisome proliferator-activated receptors (PPARs) are lipid-activated transcription factors of the nuclear receptor superfamily with three distinct subtypes namely PPAR alpha, PPAR delta (also called PPAR beta) and PPAR gamma. […]
Records with an inconclusive call do not appear.
So I've got a bunch of compounds here, and I need their max response values.
Number only, in %; omit the unit.

Req: Answer with the recorded max response of `CCCCCCCCCCCCCCCCCC(=O)OC[C@@H](O)[C@H]1OC[C@H](O)[C@H]1O` only.
Resp: 30.1

Req: Note down max response recorded for C=CC(C)(O)CC/C=C(\C)CCC=C(C)C (stereo not given)
Resp: 18.5

Req: Retrieve max response measured for `Cc1ncc[nH]1` and print it.
Resp: 34.3

Req: Recall and state the measured max response for `Nc1nccs1` .
Resp: -9.51

Req: Supply reported max response belonging to this compound: `NCCN`
Resp: 42.1

Req: For the compound `NCCO/C=C/[C@H](N)C(=O)O` , give its measured max response value.
Resp: -3.12

Req: Quickly give me recorded max response for `CC(C)O`
Resp: 15.2

Req: Output measured max response for this item: `C/C=C/C=C/C(=O)O`
Resp: 0.118

Req: Determine from records and report max response for `CO`
Resp: -4.23

Req: Please supply the value of reported max response for the item `OCl`
Resp: -10.3

Req: Specify max response for CC1=CCC2CC1C2(C)C (stereo not given) and stop.
Resp: -1.04

Req: Read the entry `C[Si](C)(C)O[Si](C)(C)C` and write its reported max response.
Resp: 8.43

Req: Entry `CCCCO` needs its max response filled in; supply it.
Resp: 1.82

Req: Output max response of CCCCC(CC)COS(=O)(=O)O (stereo not given)
Resp: -7.66

Req: Name the recorded max response of the item `Oc1cccc(O)c1O` in your answer.
Resp: -13.9

Req: Answer with the recorded max response of `CCCCC` only.
Resp: 25

Req: Give recorded max response. `Cc1ccc(S(=O)(=O)O)cc1C`
Resp: -12.1

Req: Tell me measured max response for `CC(C)CCCCCCc1ccc(O)cc1` please.
Resp: -43.1

Req: Identify measured max response associated with `OB(O)O`
Resp: 1.13

Req: For the compound `OC[C@H]1O[C@@](CO)(O[C@H]2O[C@H](CO)[C@@H](O)[C@H](O)[C@H]2O)[C@@H](O)[C@@H]1O` , give its reported max response.
Resp: -16.8
